Reported growth inhibition is given for each of the following compounds.
- Protocol Notes: NCI Yeast Anticancer Drug Screen. Data for the mlh1 rad18 strain (AID 175)
- Condition Notes: S. cerevisiae mlh1 rad18 strain growth inhibition; at 50.0 µM; stronger effect = higher value
This is part of a sample that, as a whole, favours compounds with a hit. Of some 79,000 tested, about 15% had one in any assay.
Entry rule: numbers only, all in %.

{"Query Smiles": "CCOP(=O)(Cc1ccc(Cl)cc1)OCC", "Unit Spec": "%", "growth inhibition": 8.05}
{"Query Smiles": "[CH3][Sb]1([CH3])([I])[CH2]CC[CH2]1", "Unit Spec": "%", "growth inhibition": 33.9}
{"Query Smiles": "Cc1ccc(NC(=O)c2cc3ccccc3cc2O)c(C)c1", "Unit Spec": "%", "growth inhibition": 21.8}

Proceeding to the next compound to report its growth inhibition.
growth inhibition for CN(CCC(=O)O)C1=Nc2ccc(Cl)cc2C(c2ccccc2)=[N+]([O-])C1 ?
6.85

* * *

- Protocol Notes: NCI Yeast Anticancer Drug Screen. Data for the mlh1 rad18 strain (AID 175)
- Condition Notes: S. cerevisiae mlh1 rad18 strain growth inhibition; at 50.0 µM; stronger effect = higher value
About 79,000 compounds went through this panel and 15% of them were active in at least one assay; those are over-represented in the sample as a whole.
Property Name: growth inhibition (%)
Please reply with the bare figure in % and do not write the unit itself.

{"Compound": "CC(CO)([N+](=O)[O-])[N+](=O)[O-]", "Property Name": "growth inhibition", "Reading": 7.35}
{"Compound": "Clc1ccc(-c2csc3cccc[n+]23)cc1", "Property Name": "growth inhibition", "Reading": 19.3}
{"Compound": "CCC1(O)C(=O)OCc2c1cc1n(c2=O)Cc2cc3cc(N)ccc3nc2-1 (stereo unspecified)", "Property Name": "growth inhibition", "Reading": 72.2}
{"Compound": "CC(Cl)CNC1CCCCC1 (stereo unspecified)", "Property Name": "growth inhibition", "Reading": -0.9}
{"Compound": "CCC[CH2][Sn]([CH2]CCC)([O]C(=O)CN)[O]C(=O)CN", "Property Name": "growth inhibition", "Reading": 44.1}

Kindly review the next compound as well.
# lookup: growth inhibition of COC(C)C(O)(C(=O)OCC1=CCN2CCC(O)C12)C(C)(C)O (stereo unspecified)
-52.4

* * *

- Protocol Notes: NCI Yeast Anticancer Drug Screen. Data for the cln2 rad14 strain (AID 165);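 also: 0% = growth equal to vehicle treated cultures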
- Condition Notes: S. cerevisiae cln2 rad14 strain, at 50.0 µM, stronger effect = higher value
About 79,000 compounds went through this panel and 15% of them were active in at least one assay; those are over-represented in the sample as a whole.
growth inhibition by entry:
Report the figure in % without appending any unit label.

{"Compound": "Cc1nccc2c1[nH]c1ccccc12", "growth inhibition, %": -5.65}
{"Compound": "CNC(=O)CCl", "growth inhibition, %": -7.15}
{"Compound": "Cc1nnn[n-]1.N.N.N.N.N.[Cl-].[Co+3]", "growth inhibition, %": 2.4}
{"Compound": "COc1cc(N=Nc2ccc([N+](=O)[O-])cc2)c([OH+]C)cc1[N+]#N.COc1cc(N=Nc2ccc([N+](=O)[O-])cc2)c([OH+]C)cc1[N+]#N.[Cl][Zn][Cl]", "growth inhibition, %": -3.15}
{"Compound": "OC(c1ccccc1)C(c1ccccc1)N1CCOCC1 (stereo unspecified)", "growth inhibition, %": 1.65}

Now consider a different compound.
# growth inhibition lookup, item COc1cc2c(cc1OC)-c1c3c(cc4c1[C@H](C2)N(C)CC4)OCO3
6.75
